Target: aromatase (Rattus norvegicus, UniProt P22443)
Construct: mature female rats after one week from hypophysectomy were used; from tissue; host or cells: whole animal (hypophysectomised mature female rats)
Sequence (P22443 whole entry): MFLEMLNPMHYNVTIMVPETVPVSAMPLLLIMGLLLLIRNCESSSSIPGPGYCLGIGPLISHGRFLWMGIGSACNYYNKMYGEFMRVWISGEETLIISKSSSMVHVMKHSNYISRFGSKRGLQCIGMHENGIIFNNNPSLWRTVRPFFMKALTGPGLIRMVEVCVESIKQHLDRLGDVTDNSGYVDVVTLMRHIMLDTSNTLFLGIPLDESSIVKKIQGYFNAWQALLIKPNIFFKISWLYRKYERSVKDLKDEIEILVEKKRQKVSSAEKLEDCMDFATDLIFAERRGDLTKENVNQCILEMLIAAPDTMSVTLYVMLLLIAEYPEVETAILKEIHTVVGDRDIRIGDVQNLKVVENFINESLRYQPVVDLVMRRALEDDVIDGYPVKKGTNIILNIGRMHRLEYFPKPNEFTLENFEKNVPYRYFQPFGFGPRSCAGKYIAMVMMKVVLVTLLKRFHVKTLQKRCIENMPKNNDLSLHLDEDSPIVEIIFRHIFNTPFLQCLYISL
Assay: Assay of aromatase inhibition action (in vivo), inhibition of DHEAS-induced cornification of the vaginal smear
Conditions: dose 5 mg/kg/day, orally once a day for 4 days, hypophysectomized mature female rats, 16 mg/kg DHEAS; cornification relative to solvent administration group
experimental_readout: Inhibition rate (%)
Give bare numbers, in %.

smiles_record=CC(=O)S[C@H]1C[C@H]2[C@@H]3CCOC[C@@]3(C)CC[C@@H]2[C@@]2(C)C=CC(=O)C=C12 number=72.3
smiles_record=C[C@]12C=CC(=O)C=C1[C@@H](SC#N)C[C@@H]1[C@@H]2CC[C@]2(C)C(=O)OCC[C@@H]12 number=81.3
smiles_record=C[C@]12CC[C@H]3[C@@H](C[C@H](N=[N+]=[N-])C4=CC(=O)C=C[C@@]43C)[C@@H]1CCOC2 number=100

Look up Inhibition rate (%) for this compound: `CO[C@@H]1C[C@@H]2[C@H](CC[C@]3(C)C(=O)OCC[C@@H]23)[C@@]2(C)C=CC(=O)C=C12` 100
